target: HPK1 (Homo sapiens, UniProt Q92918); construct: A HiBiT tag was introduced by CRISPR on the N terminus of HPK1 in Jurkat cells; host or cells: Jurkat cells (ATCC TIB-152), monoclonal line with CRISPR knock-in of HiBiT at the endogenous HPK1 locus; assay: HPK1 Cellular HiBit Degradation Assay; assay type: cell-based; conditions: Jurkat, HiBiT HPK1 Jurkat cells, 24 hrs; maximum degradation vs DMSO vehicle control; read-out: Dmax Category
Sequence (Q92918 whole entry): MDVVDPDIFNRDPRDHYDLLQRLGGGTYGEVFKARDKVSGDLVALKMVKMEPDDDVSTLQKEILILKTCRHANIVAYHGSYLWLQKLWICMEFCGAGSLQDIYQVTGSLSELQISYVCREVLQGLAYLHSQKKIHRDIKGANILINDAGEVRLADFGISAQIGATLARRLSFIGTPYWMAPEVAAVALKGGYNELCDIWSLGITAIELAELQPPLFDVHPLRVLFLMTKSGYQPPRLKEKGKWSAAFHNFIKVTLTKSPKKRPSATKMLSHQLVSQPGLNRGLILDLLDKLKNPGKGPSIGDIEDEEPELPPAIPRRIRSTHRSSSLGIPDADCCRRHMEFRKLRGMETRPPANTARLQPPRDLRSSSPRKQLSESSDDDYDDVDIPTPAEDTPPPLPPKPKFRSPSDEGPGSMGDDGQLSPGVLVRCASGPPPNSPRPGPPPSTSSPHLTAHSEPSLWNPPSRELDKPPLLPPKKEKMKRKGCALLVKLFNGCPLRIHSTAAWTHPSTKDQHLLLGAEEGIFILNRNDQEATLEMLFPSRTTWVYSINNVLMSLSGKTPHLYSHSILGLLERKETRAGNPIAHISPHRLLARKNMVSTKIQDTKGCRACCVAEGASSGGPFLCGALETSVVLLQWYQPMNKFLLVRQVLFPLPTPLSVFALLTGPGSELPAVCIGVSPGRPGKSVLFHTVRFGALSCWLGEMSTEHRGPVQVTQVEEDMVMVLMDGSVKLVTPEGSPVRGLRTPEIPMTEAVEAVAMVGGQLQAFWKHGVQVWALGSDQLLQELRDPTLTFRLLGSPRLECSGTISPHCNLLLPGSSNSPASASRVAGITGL
Dmax listing for selected molecules.

Known Dmax results, listed for orientation:
Cc1cc(C2CCC(=O)NC2=O)ccc1N1CCC(C(=O)N2CCC(C)(C(=O)N3CCC4(CC3)C(=O)N([C@H]3C[C@@H](N5CCCCC5)C3)c3cc(-c5cc6ncn(C(C)C)c6c(NC6CC6)n5)ccc34)CC2)CC1 (mixture of isomers) [Example 226] :: 70 to 85%
CC(C)n1cnc2cc(-c3ccc4c(c3)N([C@H]3C[C@@H](N5CCCCC5)C3)C(=O)C43CCN(C(=O)C4(CF)CCN(C(=O)C5CCN(c6ccc(C7CCC(=O)NC7=O)cn6)CC5)CC4)CC3)nc(NC3CC3)c21 (mixture of isomers) [Example 278] :: > 85%
CC(C)n1cnc2cc(-c3ccc4c(c3)N([C@H]3C[C@@H](N5CCC[C@@H](F)C5)C3)C(=O)C43CCN(C(=O)C4(C)CCN(C(=O)C5CCN(c6ccc(C7CCC(=O)NC7=O)cn6)CC5)CC4)CC3)nc(NC3CC3)c21 (mixture of isomers) [Example 219] :: 70 to 85%
CC(C)n1cnc2cc(-c3ccc4c(c3)N([C@H]3C[C@@H](N5C6COCC5C6)C3)C(=O)C43CCN(C(=O)C4(C)CCN(C(=O)C5CCN(c6ccc(C7CCC(=O)NC7=O)cc6)CC5)CC4)CC3)nc(NC3CC3)c21 (mixture of isomers) [Example 195] :: 50 to 70%
CC(C)n1cnc2cc(-c3ccc4c(c3)N([C@H]3C[C@@H](N5CCCCC5)C3)C(=O)C43CCN(C(=O)C4CCN(C(=O)CN5CCN(c6ccc(C7CCC(=O)NC7=O)cn6)CC5)CC4)CC3)nc(Nc3ccncc3F)c21 (mixture of isomers) [Example 96] :: 70 to 85%
CC(C)n1cnc2cc(-c3ccc4c(c3)N([C@H]3C[C@@H](N5CCCCC5)C3)C(=O)C43CCN(C(=O)[C@]45C[C@H]4CN(C(=O)C4CCN(c6ccc(C7CCC(=O)NC7=O)cc6)CC4)C5)CC3)nc(NC3CC3)c21 (mixture of isomers) [Example 263] :: 50 to 70%
CC(C)n1cnc2cc(-c3ccc4c(c3)N([C@H]3C[C@@H](N5CCCCC5)C3)C(=O)C43CCN(C(=O)C4(C)CCN(C(=O)[C@H]5CC[C@H](Oc6ccc(C7CCC(=O)NC7=O)cn6)CC5)CC4)CC3)nc(Nc3ccncc3F)c21 (mixture of isomers) [Example 106] :: 70 to 85%
CC(C)n1cnc2cc(-c3ccc4c(c3)N([C@H]3C[C@@H](N5CCCCC5)C3)C(=O)C43CCN(C(=O)C4CCN(C(=O)C5CCN(c6ccc(C7CCC(=O)NC7=O)c(F)c6)CC5)CC4)CC3)nc(NC3CC3)c21 (mixture of isomers) [Example 237] :: 70 to 85%

Proceeding to the next molecule to report its Dmax.
Qu. // returns reported Dmax for input CC(C)n1cnc2cc(-c3ccc4c(c3)N([C@H]3C[C@@H](N5CCCCC5)C3)C(=O)C43CCN(C(=O)C4(C(F)(F)F)CCN(C(=O)C5CCN(c6ccc(C7CCC(=O)NC7=O)cn6)CC5)CC4)CC3)nc(NC3CC3)c21 (mixture of isomers) [Example 275]
Ans. > 85%
